Attribution: ChEMBL document CHEMBL3112482

test system: SK-MEL-5; assay: Growth inhibition of human SK-MEL-5 cells at 10 uM after 48 hrs; format: functional; details: SK-MEL-5, 48 h, read-out: GI
Recorded inhibition of growth at 10 µM by entry

Example cases with answers are listed next.
[[record]]
input_smiles = "COc1cc(/C=C2\\CCCc3c2nc(C)nc3-c2cc(OC)c(OC)c(OC)c2)cc(OC)c1OC"
tested_on = "SK-MEL-5"
readout_value = "80.9%"

[[record]]
input_smiles = "COc1ccc(/C=C2\\CCCc3c2nc(C)nc3-c2ccc(OC)c(OC)c2)cc1OC"
tested_on = "SK-MEL-5"
readout_value = "93.8%"

[[record]]
input_smiles = "COc1ccc(/C=C2\\CCCc3c2nc(N)nc3-c2ccc(OC)cc2)cc1"
tested_on = "SK-MEL-5"
readout_value = "43.8%"


inhibition of growth at 10 µM reading for COc1ccc(/C=C2\CCCC3=C(c4ccc(OC)cc4)Nc4ccccc4N=C32)cc1 : < 30%

inhibition of growth at 10 µM reading for Cc1nc2c(c(-c3ccc(Br)cc3)n1)CCC/C2=C\c1ccc(Br)cc1 : < 30%

====

assay: Growth inhibition of human HOP92 cells at 10 uM after 48 hrs; assay type: functional; conditions: HOP-92, 48 h, read-out: GI
Recorded inhibition of growth at 10 µM by entry

Example cases with answers are listed next.
[[record]]
input_smiles = "Cc1nc2c(c(-c3ccc(Cl)cc3)n1)CCC/C2=C\\c1ccc(Cl)cc1"
readout_value = "< 30%"

[[record]]
input_smiles = "COc1ccc(/C=C2\\CCCc3c2nc(N)nc3-c2ccc(OC)c(OC)c2)cc1OC"
readout_value = "< 30%"


inhibition of growth at 10 µM reading for Nc1nc2c(c(-c3ccc(Br)cc3)n1)CCC/C2=C\c1ccc(Br)cc1 : < 30%

====

target: Dihydrofolate reductase (Bos taurus, UniProt P00376); test: Inhibition of bovine liver DHFR measured for every 1 min of 10 mins
Sequence (P00376 whole entry): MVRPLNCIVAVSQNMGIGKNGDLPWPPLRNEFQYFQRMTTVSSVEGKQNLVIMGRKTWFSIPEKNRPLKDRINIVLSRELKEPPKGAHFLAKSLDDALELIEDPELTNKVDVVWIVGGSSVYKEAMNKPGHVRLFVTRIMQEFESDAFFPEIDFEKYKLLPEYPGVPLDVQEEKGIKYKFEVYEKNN
measurement label: pIC50
The scale used: pIC50 is minus the common logarithm of the concentration in molar units.

Example cases with answers are listed next.
[[record]]
input_smiles = "COc1cc(/C=C2\\CCCc3c2nc(N)nc3-c2cc(OC)c(OC)c(OC)c2)cc(OC)c1OC"
readout_value = 4.68

[[record]]
input_smiles = "COc1ccc(/C=C2\\CCCC3=C(c4ccc(OC)cc4)Nc4cc(C)c(C)cc4N=C32)cc1"
readout_value = 7.00


pIC50 reading for Nc1nc2c(c(-c3ccc(Cl)cc3)n1)CCC/C2=C\c1ccc(Cl)cc1 : 4.77
